From: ChEMBL document CHEMBL1201862

Please provide measured GI50 for the entries that follow.
# Test system: LOX IMVI
# Assay explanation: NCI tumour cell line growth inhibition, 48 h
Calls of active or inactive are those of the source. No stated cut-off is given here; in the data, active = GI50 up to about 1.1 µM and inactive = higher.

**Q:** Value lookup for GI50; key = CC(=O)Nc1ccc(-c2nc3ccccc3s2)cc1I
**A:** 24.8 µM (inactive)

**Q:** Value lookup for GI50; key = OCCN(CCO)c1cccc(N(CCO)CCO)n1
**A:** > 100 µM (inactive)

**Q:** Value lookup for GI50; key = CCOC(=O)c1ccc(NC(=O)O/N=C(/Cl)CCl)cc1
**A:** 50.1 µM (inactive)

**Q:** Value lookup for GI50; key = NC1CCCCC1
**A:** 506 µM (inactive)

**Q:** Value lookup for GI50; key = Cc1cc(O)cc(O)c1C(=O)O[C@]1(C)C(=O)C=C2C=C(/C=C/C(=O)O)OC=C2C1=O
**A:** 37.2 µM (inactive)

**Q:** Value lookup for GI50; key = COc1cc(C=O)cc(/C=N/N=C/c2ccccc2O)c1O
**A:** 21.7 µM (inactive)

**Q:** Value lookup for GI50; key = O=C(CSc1nc2ccc(I)cc2c(=O)n1Cc1ccccc1)NN1C(=O)CCC1=O
**A:** 59.3 µM (inactive)

**Q:** Value lookup for GI50; key = COC1OC(C)C(OC(=O)C(C)(C)C)C(C)(O)C1O (stereo unspecified)
**A:** > 100 µM (inactive)

**Q:** Value lookup for GI50; key = O=c1n(-c2ccccc2)c(=O)n2n1C1Cc3ccccc3C12 (stereo unspecified)
**A:** > 100 µM (inactive)

**Q:** Value lookup for GI50; key = CS[C@]12[C@@H]3C(=O)N(C)C(=O)[C@@H]3[C@](C)(C(=O)N1C)C(=O)N2c1ccccc1
**A:** > 100 µM (inactive)

**Q:** Value lookup for GI50; key = Cc1ccc(/C(C#N)=C/c2cccc([N+](=O)[O-])c2)cc1
**A:** > 100 µM (inactive)

###

# Tested on: RPMI-8226
# Assay explanation: NCI tumour cell line growth inhibition, 48 h
Active and inactive are the calls of the source. Cut-off read from the data, not from the text of the source: active = GI50 up to about 1.1 µM and inactive = higher.
Outcome field: choose from active, inactive

**Q:** Please let me know the test result on file for CC1C(c2ccc3c(c2)OCO3)c2cc3c(cc2OC1N1CCCC1)OCO3 (stereo unspecified) .
**A:** inactive

**Q:** Please let me know the test result on file for C(=N/Nc1ccccn1)/c1cccnc1 .
**A:** inactive

**Q:** Please let me know the test result on file for FC(F)(F)c1cccc(-c2nc3nc(Cl)c(Cl)nc3[nH]2)c1 .
**A:** active

**Q:** Please let me know the test result on file for COc1ccc(-c2c3c(n(C4OC(CO)C(O)C(O)C4O)c(=S)c2C#N)CCC3)cc1 (stereo unspecified) .
**A:** inactive

**Q:** Please let me know the test result on file for CCOC1OC(COC(=O)C(C)(C)C)C(O)CC1n1cc(C)c(=O)[nH]c1=O (stereo unspecified) .
**A:** inactive

**Q:** Please let me know the test result on file for ClCCCSSCCCCl .
**A:** inactive

**Q:** Please let me know the test result on file for C=C(C)C1C/C=C(/C)CCCC2(CCC3=C(CC(C(=C)C)C/C=C(/C)CCC3)O2)C(=O)C1 (stereo unspecified) .
**A:** inactive

**Q:** Please let me know the test result on file for O=C1OC(CC(=O)c2ccccc2Cl)C(Cl)=C1Cl (stereo unspecified) .
**A:** inactive

**Q:** Please let me know the test result on file for COC(=O)C(Cc1nc2ccc(Cl)cc2nc1O)C(=O)C(=O)Nc1cc(C)ccc1C (stereo unspecified) .
**A:** inactive

**Q:** Please let me know the test result on file for Cc1nc2ccccc2n1Cc1nnc(N)o1 .
**A:** inactive

**Q:** Please let me know the test result on file for Oc1c2cccc1Cc1cccc3c1OCCOCCOCCOCCOc1c(cccc1Cc1cccc(c1O)C3)C2 .
**A:** inactive
